- ASSAY TARGET: Serine protease hepsin (Homo sapiens, UniProt P05981)
- Sequence (P05981 1-162 limits assumed): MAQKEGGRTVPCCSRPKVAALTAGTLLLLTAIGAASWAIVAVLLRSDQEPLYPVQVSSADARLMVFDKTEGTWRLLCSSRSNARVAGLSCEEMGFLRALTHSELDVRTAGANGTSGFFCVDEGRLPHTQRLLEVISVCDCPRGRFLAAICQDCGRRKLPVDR
- Sequence (P05981 163-417 limits assumed): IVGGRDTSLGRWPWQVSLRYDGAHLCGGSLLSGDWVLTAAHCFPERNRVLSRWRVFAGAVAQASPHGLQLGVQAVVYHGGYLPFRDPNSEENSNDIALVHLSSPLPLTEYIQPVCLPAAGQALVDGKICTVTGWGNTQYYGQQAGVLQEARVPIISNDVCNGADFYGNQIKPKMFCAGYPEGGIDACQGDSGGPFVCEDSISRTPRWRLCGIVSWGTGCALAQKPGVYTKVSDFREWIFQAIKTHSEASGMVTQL
- ASSAY COMMENT: Inhibition of human recombinant hepsin using Boc-QAR-AMC as substrate preincubated for 30 mins followed by substrate addition measured for 15 to 120 mins by plate reader analysis
pKi: −log10 of the molar value.
REPORTED METRIC: pKi

a. CC(=O)N[C@@H](CCCCN)C(=O)N[C@@H](CCC(N)=O)C(=O)N[C@@H](CC(C)C)C(=O)N[C@H](CCCNC(=N)N)C(=O)c1nccs1
b. CC(=O)N[C@@H](CC(C)C)C(=O)N[C@@H](CCCN=C(N)N)C(=O)c1nc2ccccc2s1
Response body: label of entry with the larger pKi; valid values a , b . Answer format: the label of the selected item. a
